TEST READOUT: melting point

>  <COMPOUND>
CC(C)(NC1=NS(=O)(=O)c2sc(Cl)cc2N1)c1ccccc1 [Example 10]

>  <TEST READOUT>
melting point

>  <RESULT>
~ 360 °C (dec.)

$$$$
>  <COMPOUND>
O=S1(=O)N=C(NC2(CO)CCCC2)Nc2cc(Cl)sc21 [Example 9]

>  <TEST READOUT>
melting point

>  <RESULT>
213 to 214 °C

$$$$
>  <COMPOUND>
O=S1(=O)N=C(NC23CC4CC(CC(C4)C2)C3)Nc2cc(Cl)sc21 [Example 6]

>  <TEST READOUT>
melting point

>  <RESULT>
339 to 340 °C

$$$$
>  <COMPOUND>
CC(C)(CO)NC1=NS(=O)(=O)c2sc(Cl)cc2N1 [Example 4]

>  <TEST READOUT>
melting point

>  <RESULT>
224 to 226 °C

$$$$

Read the next record carefully.
Exercise: // Input: CC1(NC2=NS(=O)(=O)c3sc(Cl)cc3N2)CCC1 [Example 13] . Output its melting point only.
Solution: 294 to 296 °C
